- EXPERIMENTAL TARGET: T1, alpha-s1 casein from Bos taurus
- T1 chain: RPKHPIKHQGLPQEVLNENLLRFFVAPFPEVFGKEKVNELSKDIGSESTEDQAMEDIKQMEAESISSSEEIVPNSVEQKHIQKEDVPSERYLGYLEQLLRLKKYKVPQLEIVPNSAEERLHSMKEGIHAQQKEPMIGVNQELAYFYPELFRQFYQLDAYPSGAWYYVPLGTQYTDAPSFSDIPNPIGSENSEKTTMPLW
REPORTED ENDPOINT: αs1 CN, 6 hours, 11° C. (Volume)
Please reply with the bare figure in Volume and do not write the unit itself.

Which value of αs1 CN, 6 hours, 11° C. has been reported for camel chymosin variant #142 (F223Q) (protein) GKVAREPLTSYLDSQYFGKIYIGTPPQEFTVVFDTGSSDLWVPSIYCKSNVCKNHHRFDPRKSSTFRNLGKPLSIHYGTGSMEGFLGYDTVTVSNIVDPNQTVGLSTEQPGEVFTYSEFDGILGLAYPSLASEYSVPVFDNMMDRHLVARDLFSVYMDRNGQGSMLTLGAIDPSYYTGSLHWVPVTLQQYWQFTVDSVTINGVAVACVGGCQAILDTGTSVLQGPSSDILKIQMAIGATENRYGEFDVNCGNLRSMPTVVFEINGRDYPLSPSAYTSKDQGFCTSGFQGDNNSELWILGDVFIREYYSVFDRANNRVGLAKAI in the records?
3.72e+07

Hey, just so you know, these numbers are from patent US20150140169.
